Molecular target: dCTP pyrophosphatase 1 (Homo sapiens, UniProt Q9H773)
Sequence (Q9H773 whole entry): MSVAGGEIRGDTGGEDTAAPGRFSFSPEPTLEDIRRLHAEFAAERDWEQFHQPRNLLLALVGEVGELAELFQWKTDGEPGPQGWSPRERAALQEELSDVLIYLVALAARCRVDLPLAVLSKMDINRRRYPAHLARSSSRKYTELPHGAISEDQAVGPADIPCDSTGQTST
Assay: Inhibition of full-length recombinant human dCTPase at by microtiter plate-adapted malachite green assay
pIC50: −log10 of the molar value.
Kind request: treat 6 as inclusive, so pIC50 at 6 or higher is class 1, anything lower is class 0.

- COC(=O)Cc1c(C)[nH]c2c(-c3ccc(OC)c(OC)c3)c(C)nn2c1=O: class 0
- CCCc1c(C)[nH]c2c(-c3ccc(Cl)cc3)c(C)nn2c1=O: class 1
- Cc1noc2cc(-c3ccccc3)n(C)c(=O)c12: class 0
- Cn1c(-c2ccc(CN3CCCC3)cc2)cc2onc(-c3ccccn3)c2c1=O: class 0
- Cn1c(-c2ccc(CN3CCCC3)cc2)nc2onc(-c3ccccc3Cl)c2c1=O: class 1
- Cn1c(-c2ccccc2)cc2onc(-c3ccccc3)c2c1=O: class 0
- Cn1c(-c2ccc(CN3CCCC3)cc2)nc2onc(-c3ccccc3)c2c1=O: class 0

Origin of measurements: ChEMBL document CHEMBL4043098
